- test_system: menin/MLL binding (biotinylated wild-type or mutated menin and MLL-AF9 fusion protein) (Homo sapiens, UniProt O00255)
- Construct: biotinylated (1) wild-type menin or (2) mutated menin (described in Nature (2012) Vol. 482, pp. 542-548); fused on or other part: Biotin attached chemically (Sulfo-NHS-Biotin); no fused second protein is printed for menin
- Sequence (O00255 1-459 limits assumed, change not shown): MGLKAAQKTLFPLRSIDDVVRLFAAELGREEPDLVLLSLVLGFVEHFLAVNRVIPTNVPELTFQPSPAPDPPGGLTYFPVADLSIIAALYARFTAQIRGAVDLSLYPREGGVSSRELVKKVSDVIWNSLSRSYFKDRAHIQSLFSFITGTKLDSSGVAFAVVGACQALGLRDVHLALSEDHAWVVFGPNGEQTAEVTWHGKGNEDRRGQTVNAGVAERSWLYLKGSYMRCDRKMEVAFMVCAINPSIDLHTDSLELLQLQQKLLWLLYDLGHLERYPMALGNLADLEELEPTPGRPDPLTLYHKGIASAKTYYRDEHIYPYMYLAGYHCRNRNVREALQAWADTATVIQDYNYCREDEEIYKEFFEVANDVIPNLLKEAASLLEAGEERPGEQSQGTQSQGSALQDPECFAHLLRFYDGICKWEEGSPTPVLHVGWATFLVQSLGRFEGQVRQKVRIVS
- protocol_text: Assay 1 (Binding Assay): AlphaLISA menin/MLL binding
- test_parameters: 5 nM biotinylated menin, MLL-AF9-FLAG lysate
So I've got a bunch of molecules here, and I need their IC50 values.

Asked: // IC50 lookup, key: Cc1c(CN2CCC(c3cn(-c4ccc(F)cc4C(=O)N(C)C)c4cncnc34)CC2)ccc2[nH]c(C#N)cc12
Given back: < 100 nM

Count: 2. Required value per item: IC50.
1. CC(C)N(C(=O)c1cc(F)ccc1-n1cc(C2CCC(N3CCC4(CC(NS(C)(=O)=O)C4)C3)CC2)c2ccncc21)C(C)C (single isomer, unassigned) [Example 139]
2. CC(C)N(C)C(=O)c1cc(F)ccc1-n1cc(C2CCC3(CC2)CN(C)C3)c2ccncc21 [Example 51A]

Given back:
1: < 100 nM; 2: 100 to 1000 nM

Count: 3. Required value per item: IC50.
1. CC(C)N(C)C(=O)c1cc(F)ccc1-n1cc(C2CCN(C[C@H]3CC[C@H](O)CC3)CC2)c2ccncc21
2. Cc1c(CN2CCC(c3cn(-c4ccc(F)cc4)c4cnccc34)CC2)ccc2[nH]c(C#N)cc12
3. CCN(C(=O)c1cc(F)ccc1-n1cc(C2CCN(C[C@H]3CC[C@H](NS(C)(=O)=O)CC3)C2)c2ccncc21)C(C)C (stereo partly drawn)

Given back:
< 100 nM
< 100 nM
< 100 nM
